For each record, write down the corresponding inhibition.
# experimental-system: High affinity nerve growth factor receptor (Homo sapiens);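 note: each value is the mean percent inhibition of TRKA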
# setup-conditions: at 1 µM
Your answer should be a plain number; it is taken to be in %.

Prompt: Recorded inhibition for `NS(=O)(=O)c1ccc(N/N=C2\C(=O)Nc3ccc(Cl)cc32)cc1` , please?
Response: 17.9

Prompt: Next up: `CN(C)CCCn1c(-c2nonc2N)nc2cnccc21`
Response: 3.29

Prompt: Next up: `Cc1cc(-c2ccccn2)cc(C)c1/C=C/c1cncc(-c2nn[nH]n2)c1`
Response: 10

Prompt: Next up: `CC(C)c1ccc2c(c1)NC(=O)/C2=N/Nc1ccc(S(N)(=O)=O)cc1`
Response: 26.1

Prompt: Next up: `COc1cc2ncnc(Nc3ccc4c(cnn4Cc4ccccc4)c3)c2cc1OC`
Response: 2.18

Prompt: Next up: `CCS(=O)(=O)c1ccc(OC)c(Nc2ncc(-c3cccc(OC)c3)o2)c1`
Response: 30.9

Prompt: Next up: `Cc1ccc(C(=O)NC2CC2)cc1-c1ccc2[nH]ncc2c1`
Response: -1.16

Prompt: Next up: `Nc1nccc(C#Cc2cncnc2Nc2ccc(OCc3cccc(F)c3)c(Cl)c2)n1`
Response: 9.29

Prompt: Next up: `Cc1ccc2c(-c3ccnc(Nc4cccc(C(F)(F)F)c4)n3)c(-c3ccccc3)nn2n1`
Response: 7.09

Prompt: Next up: `Nc1nccc(-c2c(-c3ccc(F)cc3)nn3cc(C(F)(F)F)ccc23)n1`
Response: -4.55

Prompt: Next up: `O=C1Nc2ccc(-c3cccnc3)cc2C1=Cc1cc(Br)c(O)c(Br)c1`
Response: 12.8

Prompt: Next up: `CS(=O)(=O)CCNCc1nc(-c2ccc3ncnc(Nc4ccc(OCc5cccc(C(F)(F)F)c5)cc4)c3c2)cs1`
Response: 5.08

Prompt: Next up: `Cc1cc(O)cc(C)c1/C=C/c1cncc(C(=O)N(C)C)c1`
Response: 2.43

Prompt: Next up: `N#Cc1cccc(Nc2nccc(-c3cnn4ncccc34)n2)c1`
Response: 65.7

Prompt: Next up: `COc1cc(Nc2nccc(-c3cnn4ncccc34)n2)cc(OC)c1`
Response: 26.7

Prompt: Next up: `O=C(Nc1ccc(Oc2ccc3[nH]c(NC(=O)c4ccco4)nc3c2)cc1)Nc1cc(C(F)(F)F)ccc1F`
Response: 85.5

Prompt: Next up: `NS(=O)(=O)c1ccc(Nc2cc(-c3cccc(O)c3)n[nH]2)cc1`
Response: 10.5

Prompt: Next up: `Cc1ccc2c(c1)/C(=N/Nc1ccc(S(N)(=O)=O)cc1)C(=O)N2`
Response: 11.8

Prompt: Next up: `Nc1nccc(-c2c(-c3ccc(F)cc3)ncn2CCCN2CCOCC2)n1`
Response: 2.15

Prompt: Next up: `CN1CCN(C(=O)c2ccc(NC(=O)Nc3ccc(N(C)c4ccnc(Nc5ccc(CS(C)(=O)=O)cc5)n4)cc3)cc2)CC1`
Response: 51

Prompt: Next up: `c1ccc(Cc2nc3ccc(Nc4ncnc5ccccc45)cc3[nH]2)cc1`
Response: 0.18

====

# experimental-system: Protein-tyrosine kinase 6 (Homo sapiens) (UniProt Q13882)
# Sequence (Q13882 whole entry, looked up): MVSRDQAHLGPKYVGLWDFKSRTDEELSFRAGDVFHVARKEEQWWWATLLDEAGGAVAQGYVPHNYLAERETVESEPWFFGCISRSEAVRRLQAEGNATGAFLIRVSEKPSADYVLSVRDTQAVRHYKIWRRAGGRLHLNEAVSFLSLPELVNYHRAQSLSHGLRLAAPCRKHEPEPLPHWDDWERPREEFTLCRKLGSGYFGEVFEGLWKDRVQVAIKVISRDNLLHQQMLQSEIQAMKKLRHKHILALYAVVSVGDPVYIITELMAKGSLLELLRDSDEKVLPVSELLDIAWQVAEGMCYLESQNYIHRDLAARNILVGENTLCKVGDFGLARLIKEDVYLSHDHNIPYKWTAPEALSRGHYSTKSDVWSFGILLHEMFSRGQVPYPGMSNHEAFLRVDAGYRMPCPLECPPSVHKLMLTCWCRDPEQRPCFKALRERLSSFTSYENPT
# setup-conditions: at 1 µM
# Description: GSK_PKIS: BRK mean inhibition at 1 uM [Nanosyn]
For each record, write down the corresponding inhibition.
Your answer should be a plain number; it is taken to be in %.

Prompt: # returns recorded inhibition (system: Protein-tyrosine kinase 6 (Homo sapiens) (UniProt Q13882)) for `NC(=O)c1cccc(Nc2nccc(Nc3cccc(F)c3)n2)c1`
Response: 36.2

Prompt: Next up: `O=C1Nc2ccc(-c3cccnc3)cc2C1=Cc1cc(Br)c(O)c(Br)c1`
Response: 10.7

Prompt: Next up: `N#Cc1c(NC(=O)c2ccccc2F)sc2c1CCCC2`
Response: -1.93

Prompt: Next up: `[O-][S+]1CCN(Cc2ccc(-c3ccc4ncnc(Nc5ccc(OCc6ccccc6)c(Cl)c5)c4c3)o2)CC1`
Response: 11

Prompt: Next up: `Cc1ccc2c(-c3ccnc(Nc4cccc(C(F)(F)F)c4)n3)c(-c3ccccc3)nn2n1`
Response: 70.9

Origin of measurements: ChEMBL document CHEMBL1961873
